Record form. Attribute: Yap1 mRNA, % UTC. Fill in for each entry.
System: Yap1 mRNA
Experiment: Dose-dependent inhibition of human Yap1 in A-431 cells (Example 8, 10,000 cells per well, RTS4814)
Type: cell-based
Details: 31.3 nM; A-431 cells, 10,000 cells per well, free uptake, approximately 48 hours, RTS4814
Strand notation (5' to 3'): a small letter for the sugar, then the base; units joined by * are phosphorothioate-linked, units joined directly phosphodiester-linked; [ ] holds rarer units or linkages, { } end groups; capitals alone tell only the bases. k = constrained ethyl (cEt); [5mC] = 5-methylcytosine; d = 2'-deoxy (DNA)
Give bare numbers, in % UTC.

>  <Substance>
1075689 (k[5mC]*kA*kA*d[5mC]*dT*dA*dT*dA*d[5mC]*dA*dA*dG*dG*k[5mC]*kA*kA; antisense) [compound 1075689]

>  <Yap1 mRNA, % UTC (% UTC)>
97

$$$$
>  <Substance>
1074509 (kT*kG*kT*dT*dA*dT*dG*dT*dT*dT*dG*dG*dG*kT*kG*kT; antisense) [compound 1074509]

>  <Yap1 mRNA, % UTC (% UTC)>
44

$$$$

Let's switch to this substance now.
What value of Yap1 mRNA, % UTC has been recorded for this entry: 1074608 (DNA kG*kT*kT*dA*d[5mC]*dA*dT*d[5mC]*dA*dT*d[5mC]*dT*d[5mC]*kT*kT*k[5mC]) [compound 1074608]
49

====

Test system: Yap1 mRNA
Test: Antisense inhibition of human Yap1 in A-431 cells by cEt gapmers, single dose (Example 4, RTS4814)
Assay type: cell-based
Conditions: Yap1 mRNA remaining as percent of untreated control; 3-10-3 cEt gapmers; A-431 cells; Table 37
Strand notation (5' to 3'): a small letter for the sugar, then the base; units joined by * are phosphorothioate-linked, units joined directly phosphodiester-linked; [ ] holds rarer units or linkages, { } end groups; capitals alone tell only the bases. k = constrained ethyl (cEt); [5mC] = 5-methylcytosine; d = 2'-deoxy (DNA)
Kindly supply the reported YAP1 (% UTC) values for the records listed here.
Numbers only, in % UTC.

See these solved cases before continuing.
>  <Substance>
1074999 (antisense kA*kA*k[5mC]*d[5mC]*dA*dA*d[5mC]*dA*d[5mC]*dG*d[5mC]*dG*dA*k[5mC]*k[5mC]*kT) [compound 1074999]

>  <Target Under Test>
Yap1 mRNA

>  <Scale Unit>
% UTC

>  <YAP1 (% UTC)>
77

$$$$
>  <Substance>
1076023 (kA*kT*kA*dA*dT*dT*dA*dG*dA*dT*dG*d[5mC]*dT*kG*kA*k[5mC]; antisense) [compound 1076023]

>  <Target Under Test>
Yap1 mRNA

>  <Scale Unit>
% UTC

>  <YAP1 (% UTC)>
4

$$$$
>  <Substance>
1075031 (antisense kA*kT*kT*dT*dA*dA*dT*dA*dT*dT*d[5mC]*dG*dA*k[5mC]*kA*k[5mC]) [compound 1075031]

>  <Target Under Test>
Yap1 mRNA

>  <Scale Unit>
% UTC

>  <YAP1 (% UTC)>
52

$$$$
>  <Substance>
1074199 (antisense kG*k[5mC]*k[5mC]*dG*dG*dT*dT*dG*d[5mC]*d[5mC]*d[5mC]*dG*dG*kG*kT*k[5mC]) [compound 1074199]

>  <Target Under Test>
Yap1 mRNA

>  <Scale Unit>
% UTC

>  <YAP1 (% UTC)>
101

$$$$
>  <Substance>
1074231 (antisense kA*kA*kA*dG*dA*dA*dG*dA*d[5mC]*dT*dG*dT*d[5mC]*kG*kA*kA) [compound 1074231]

>  <Target Under Test>
Yap1 mRNA

>  <Scale Unit>
% UTC

>  <YAP1 (% UTC)>
8

$$$$

Give YAP1 (% UTC) for each listed item.
1. 1074359 (antisense kT*kT*k[5mC]*dG*dA*dG*dG*dG*dA*d[5mC]*dA*d[5mC]*dT*kG*kT*kA) [compound 1074359]
2. 1075671 (kG*kA*kT*dA*dT*dA*dT*dA*dT*dG*dA*dT*dG*kG*kA*k[5mC]; antisense) [compound 1075671]
3. 1075831 (kT*kA*kT*dT*dA*dG*d[5mC]*d[5mC]*dT*dT*d[5mC]*dT*dA*kA*k[5mC]*k[5mC]; antisense) [compound 1075831]
4. 1076567 (kG*kA*kT*dT*dA*d[5mC]*dA*dG*dT*dG*dA*d[5mC]*dA*kT*kT*k[5mC]; antisense) [compound 1076567]
5. 1074647 (antisense k[5mC]*kA*kA*dA*dT*dT*dG*dA*dA*dG*dG*dG*d[5mC]*k[5mC]*kA*kA) [compound 1074647]
6. 1074487 (kA*kG*kA*dT*dT*d[5mC]*dA*d[5mC]*dT*dA*dA*dT*dA*kT*kG*kG; antisense) [compound 1074487]
7. 1075639 (antisense kA*kA*kT*dT*dA*dA*d[5mC]*d[5mC]*dA*dG*dA*dA*dG*k[5mC]*k[5mC]*kT) [compound 1075639]

[18, 37, 59, 10, 27, 7, 101]

====

Assign MCV to each entry below.
Experiment: Cynomolgus monkey tolerability, hematology (Example 34)
Assay type: in vivo, cynomolgus monkeys
Details: cynomolgus monkey, in vivo, sc, 35 mg/kg
Description: To evaluate any effect of Ionis oligonucleotides in cynomolgus monkeys on hematologic parameters, blood samples of approximately 0.5 mL of blood was collected from each of the available study animals on day 44. The samples were collected in tubes containing K2-EDTA. […]

Worked examples, 4 substances total:
>  <Substance>
1198440 (AAGTGTATGTCAGAAG; cEt, 2'-MOE, 5-methylcytosine, phosphorothioate modifications, further chemistry not given here) [compound 1198440]

>  <MCV>
80 fL

$$$$
>  <Substance>
958499 (ATTAGAGTATGTGGCA; 3-10-3 cEt gapmer, further chemistry not given here) [compound 958499]

>  <MCV>
77 fL

$$$$
>  <Substance>
1198605 (GTAATATTGCAATCTG; modified gapmer, further chemistry not given here) [compound 1198605]

>  <MCV>
75 fL

$$$$
>  <Substance>
1197270 (TTAAAGTGTATGTCAG; cEt gapmer with 2'-OMe nucleoside, phosphorothioate, further chemistry not given here) [compound 1197270]

>  <MCV>
79 fL

$$$$

As a next step, examine the substance that follows.
I would be grateful if you could share the reported MCV for 1198439 (AGTGTATGTCAGAAGA; sugar, 5-methylcytosine, phosphorothioate modifications, further chemistry not given here) [compound 1198439] .
79 fL

====

System: Yap1 mRNA
Test: Dose-dependent inhibition of human Yap1 in A-431 cells (Example 8, 10,000 cells per well, RTS4814)
Assay type: cell-based
Settings: 125.0 nM; A-431 cells, 10,000 cells per well, free uptake, approximately 48 hours, RTS4814
Strand notation (5' to 3'): a small letter for the sugar, then the base; units joined by * are phosphorothioate-linked, units joined directly phosphodiester-linked; [ ] holds rarer units or linkages, { } end groups; capitals alone tell only the bases. k = constrained ethyl (cEt); [5mC] = 5-methylcytosine; d = 2'-deoxy (DNA)
Give Yap1 mRNA, % UTC for every item shown.
One number for each entry, in % UTC.

# annotated cases, reported Yap1 mRNA, % UTC shown
>  <Substance>
1076260 (k[5mC]*kT*kT*dA*dA*dT*dT*dT*dA*dA*d[5mC]*dT*d[5mC]*k[5mC]*kT*kG; antisense) [compound 1076260]

>  <Target Under Test>
Yap1 mRNA

>  <Scale Unit>
% UTC

>  <Yap1 mRNA, % UTC>
30

$$$$
>  <Substance>
1074630 (antisense kA*kG*kA*dG*dA*dT*dT*dT*dT*dA*dT*dG*d[5mC]*k[5mC]*kT*kG) [compound 1074630]

>  <Target Under Test>
Yap1 mRNA

>  <Scale Unit>
% UTC

>  <Yap1 mRNA, % UTC>
23

$$$$
>  <Substance>
1075458 (antisense k[5mC]*k[5mC]*kA*d[5mC]*dA*dA*dT*dA*dT*dA*d[5mC]*dT*d[5mC]*k[5mC]*kA*kA) [compound 1075458]

>  <Target Under Test>
Yap1 mRNA

>  <Scale Unit>
% UTC

>  <Yap1 mRNA, % UTC>
43

$$$$
>  <Substance>
1076397 (antisense kA*kA*k[5mC]*d[5mC]*dT*dA*dT*dA*dT*dT*dT*dG*dA*kG*k[5mC]*k[5mC]) [compound 1076397]

>  <Target Under Test>
Yap1 mRNA

>  <Scale Unit>
% UTC

>  <Yap1 mRNA, % UTC>
14

$$$$

Quick batch: Yap1 mRNA, % UTC for everything below.
1. 1075249 (kA*kT*kT*dA*d[5mC]*dG*dA*dT*dT*dA*dG*dA*dT*k[5mC]*kA*kG; antisense) [compound 1075249]
2. 1075246 (kG*kA*kT*dA*dA*d[5mC]*dT*dA*dG*dT*dA*dA*d[5mC]*k[5mC]*kG*kT; antisense) [compound 1075246]

[37, 34]
